Reported values of t½ for individual entries
# system_tested: T1, D1 domain of human IL-2Rγ extracellular domain expressed with a C-terminal myc-myc-hexahistidine tag (human)
# T1 construct: also called human IL2Rγ domain 1
# T1 chain: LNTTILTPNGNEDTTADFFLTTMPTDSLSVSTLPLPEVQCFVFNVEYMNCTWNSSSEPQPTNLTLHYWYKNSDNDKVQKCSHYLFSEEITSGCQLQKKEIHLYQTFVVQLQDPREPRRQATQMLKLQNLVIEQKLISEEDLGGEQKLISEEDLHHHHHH
# protocol_text: SPR, mAb captured on anti-hFc, 37 C
The figure you give is taken to be in min; do not add the unit.

Examples from the recorded data:
{"binder": "H4H12863P (antibody, human IgG4 S228P, kappa, V domains shown, human IgG4) VH: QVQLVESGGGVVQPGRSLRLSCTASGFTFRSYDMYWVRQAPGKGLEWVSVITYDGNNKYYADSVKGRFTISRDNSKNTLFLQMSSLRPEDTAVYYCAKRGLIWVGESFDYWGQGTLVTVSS VL: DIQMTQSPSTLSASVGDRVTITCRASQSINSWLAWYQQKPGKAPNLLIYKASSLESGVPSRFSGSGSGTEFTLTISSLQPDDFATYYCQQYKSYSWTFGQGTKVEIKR", "unit_name": "min", "t½": 5}
{"binder": "H4H12871P (antibody, human IgG4 S228P, kappa, V domains shown, human IgG4; also called REGN9434) VH: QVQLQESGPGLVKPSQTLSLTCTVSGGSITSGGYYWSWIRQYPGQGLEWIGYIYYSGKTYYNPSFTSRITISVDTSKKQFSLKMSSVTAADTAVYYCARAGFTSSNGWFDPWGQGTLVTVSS VL: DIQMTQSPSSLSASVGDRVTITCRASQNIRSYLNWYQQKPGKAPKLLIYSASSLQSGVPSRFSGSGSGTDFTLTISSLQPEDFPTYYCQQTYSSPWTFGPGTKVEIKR", "unit_name": "min", "t½": 3.2}
{"binder": "H4H12889P (antibody, human IgG4 S228P, kappa, V domains shown, human IgG4; also called REGN7257) VH: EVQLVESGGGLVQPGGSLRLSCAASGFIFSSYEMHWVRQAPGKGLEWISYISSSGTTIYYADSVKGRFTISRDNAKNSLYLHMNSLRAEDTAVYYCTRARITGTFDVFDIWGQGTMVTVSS VL: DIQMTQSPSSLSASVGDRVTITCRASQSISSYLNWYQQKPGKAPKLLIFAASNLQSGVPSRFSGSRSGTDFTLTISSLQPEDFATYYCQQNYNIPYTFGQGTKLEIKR", "unit_name": "min", "t½": 2.3}

// below: t½ requested for another binder
Given H4H12884P (antibody, human IgG4 S228P, kappa, V domains shown, human IgG4) VH: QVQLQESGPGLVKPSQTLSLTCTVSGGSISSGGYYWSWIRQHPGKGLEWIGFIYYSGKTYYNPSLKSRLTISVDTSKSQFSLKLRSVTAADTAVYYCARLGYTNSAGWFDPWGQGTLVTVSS VL: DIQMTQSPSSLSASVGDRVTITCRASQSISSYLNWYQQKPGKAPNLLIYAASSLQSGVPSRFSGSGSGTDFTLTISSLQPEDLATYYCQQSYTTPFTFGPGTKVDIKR , respond with its t½.
2.6

Measured values drawn from patent US20200247894A1 for this set.
